# Tested system: Melanocyte-stimulating hormone receptor (Homo sapiens)
# Sequence (Q01726 whole entry): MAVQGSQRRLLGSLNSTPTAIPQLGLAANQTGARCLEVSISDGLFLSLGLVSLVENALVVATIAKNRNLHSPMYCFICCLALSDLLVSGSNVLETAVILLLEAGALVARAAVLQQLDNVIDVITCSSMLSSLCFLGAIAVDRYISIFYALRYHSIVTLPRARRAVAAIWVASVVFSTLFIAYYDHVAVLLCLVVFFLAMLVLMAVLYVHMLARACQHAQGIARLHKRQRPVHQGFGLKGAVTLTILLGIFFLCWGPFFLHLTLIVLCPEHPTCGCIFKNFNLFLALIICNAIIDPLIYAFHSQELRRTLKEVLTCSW
# Assay comment: Agonistic activity against human Melanocortin 1 receptor
Give EC50 for every item shown.
Give bare numbers, in nM.

These recorded examples may help you get a feel for the data.
N=C(N)NCCC[C@H](NC(=O)C(Cc1ccccc1)NC(=O)[C@H](Cc1ccc(Cl)cc1)NC(=O)Nc1ccccc1)C(=O)N[C@@H](Cc1c[nH]c2ccccc12)C(N)=O (stereo in doubt)
985
N=C(N)NCCC[C@H](NC(=O)C(Cc1ccccc1)NC(=O)[C@H](Cc1ccc(Cl)cc1)NC(=O)c1ccccn1)C(=O)N[C@@H](Cc1c[nH]c2ccccc12)C(N)=O (stereo in doubt)
947
N=C(N)NCCC[C@H](NC(=O)C(Cc1ccccc1)NC(=O)[C@H](Cc1ccc(Cl)cc1)NC(=O)c1ccccc1)C(=O)N[C@@H](Cc1c[nH]c2ccccc12)C(N)=O (stereo in doubt)
700
C=CCC(=O)N[C@@H](Cc1ccc(Cl)cc1)C(=O)NC(Cc1ccccc1)C(=O)N[C@@H](CCCNC(=N)N)C(=O)N[C@@H](Cc1c[nH]c2ccccc12)C(N)=O (stereo in doubt)
856
N#CCC(=O)N[C@@H](Cc1ccc(Cl)cc1)C(=O)NC(Cc1ccccc1)C(=O)N[C@@H](CCCNC(=N)N)C(=O)N[C@@H](Cc1c[nH]c2ccccc12)C(N)=O (stereo in doubt)
567

Look up EC50 for the entries below, preserving their order.
1. CSCC(=O)N[C@@H](Cc1ccc(Cl)cc1)C(=O)NC(Cc1ccccc1)C(=O)N[C@@H](CCCN=C(N)N)C(=O)N[C@@H](Cc1c[nH]c2ccccc12)C(N)=O (stereo in doubt)
2. N=C(N)NCCC[C@H](NC(=O)C(Cc1ccccc1)NC(=O)[C@H](Cc1ccc(Cl)cc1)NC(=O)C(N)=O)C(=O)N[C@@H](Cc1c[nH]c2ccccc12)C(N)=O (stereo in doubt)
3. CCC(=O)N[C@@H](Cc1ccc(Cl)cc1)C(=O)NC(Cc1ccccc1)C(=O)N[C@@H](CCCN=C(N)N)C(=O)N[C@@H](Cc1c[nH]c2ccccc12)C(N)=O (stereo in doubt)

Result:
1. 378
2. 349
3. 1980
